test: protein stability index of a GFP-peptide fusion (GPS, HEK-293T) (PSI 1-6); higher = more stable; settings: treatment: DMSO; c terminus: a fixed tail appended;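 note: 24-mer peptide tiles fused after GFP, lentivirally expressed, FACS-sorted into six equal bins by GFP/DsRed ratio, decoded by Illumina sequencing, PSI is the read-weighted mean bin number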
protein stability index values by entry
Measurement name: protein stability index

- AGSEQKGQIIKDIDSGSPAEEAGL [PDZK1]: 5.61
- SATLRSFEGLMGTIKSKVSGGKRA [TPD52L3]: 3.51
- EAAGVQIQMVNESLGYVRSQFLKL [CD207]: 2.33
- LLRTFDAGEFTGWEKVGSGGFGQV [RIPK4]: 2.43
- PIRCGEVLFAVGGWCSGDAISSVE [KLHL20]: 2.22
- PSLAVNLADPYRSLKAPGARGPGP [JUNB]: 4.01
- LEFDLLIFSFGQLPLALVTWVPMF [SOAT2]: 3.17
- FGFAQILIPGDAYTDYVATRWYRA [CDKL4]: 2.31
- AIILSSCLLGLGSLVLILSLSYTV [SLC2A12]: 3.06
- RLQEVRESIRRAQVSQVKGAARLA [FCHSD1]: 3.17
- SIGDIESCKLVRDKITGQSLGYGF [ELAVL3]: 2.72
- AMLKALLGSKHKVCMDLRANLKQV [TNNI2]: 2.42
- VPGHRSERAIRTQPKQLIVDDLKG [SPRY1]: 4.25
- GALTPTPAPTTTTATREEASTSLP [CLPTM1]: 5.28
- LLYTSLPDFCHKFLPGYVGGIQEG [DHCR7]: 2.58
- ETYMSADDLRINLWHLAITDRSFN [PPP2R2C]: 2.23
- DSTKTAFHRSQTLSYRNGYAIVRR [EFHC1]: 3.31
- NESKGTRESWDSAKKLPPVQESQS [ELOA2]: 5.41
- VSLSLENRELWKEFSSVGTEMIIT [TBX6]: 2.71
